# Tested on: SF-539
# assay-notes: NCI tumour cell line growth inhibition, 48 h
The source made the active and inactive calls. No stated cut-off is given here; in the data, active = GI50 up to about 1.1 µM and inactive = higher.
Return exactly one item of 1.0 = active, 0.0 = inactive

// below: answered compounds
input: Any idea what this test logged for CC/C(=N/O)c1ccc(Br)s1 ?
output: 0.0

input: Any idea what this test logged for COc1ccc2ccccc2c1C1=NC(C)(C)CO1 ?
output: 0.0

input: Any idea what this test logged for CN1C(=O)C23CC4=CC=CC(O)C4N2C(=O)C1(CO)SS3 (stereo not given) ?
output: 1.0

Please turn your attention to the following entry.
input: Any idea what this test logged for C[C@H]1[C@H](C)N1CC(O)Cn1ccnc1[N+](=O)[O-] (stereo not given in full) ?
output: 0.0

----------
# System: HOP-92
# assay-notes: NCI tumour cell line growth inhibition, 48 h
The source made the active and inactive calls. Rule as the data show it: active = GI50 up to about 1.1 µM and inactive = higher.
Return exactly one item of 1 (active), 0 (inactive)

input: Any idea what this test logged for CC(C)(C(=O)NN)c1ccccc1 ?
output: 0

input: Any idea what this test logged for C=C1C(=O)O[C@@H]2C[C@@H](C)[C@@H]3C=CC(=O)[C@@]3(C)[C@@H](OC(=O)CC(=O)O[C@H]3[C@@H]4C(=C)C(=O)O[C@@H]4C[C@@H](C)[C@@H]4C=CC(=O)[C@]43C)[C@H]12 ?
output: 1

More entries:
input: Any idea what this test logged for O=c1c2cc(O)ccc2n2nnc3ccc(NCCNCCO)c1c32 ?
output: 0

input: Any idea what this test logged for COc1cccc(/C=C/c2cc(OC)c(OC)c(OC)c2)c1 ?
output: 0

----------
# System: SK-MEL-28
# assay-notes: NCI tumour cell line growth inhibition, 48 h
Active and inactive are the calls of the source. Cut-off read from the data, not from the text of the source: active = GI50 up to about 1.1 µM and inactive = higher.
Entries and their measured GI50 follow.

Examples from the recorded data:
input: Data request, read-out GI50, for Fc1cccc(F)c1C1SCC2=Nc3ccccc3CN21 (centres undefined)
output: > 100 µM (inactive)

input: Data request, read-out GI50, for COc1ccc(Nc2nc3ccccc3nc2-c2cccs2)cc1OC
output: > 10 µM (inactive)

input: Data request, read-out GI50, for S=C(Nc1ccc(Cl)cc1)SC1CCCCC1
output: 17.3 µM (inactive)

input: Data request, read-out GI50, for N=C(N)n1ncc(Cl)c(Cl)c1=O
output: 2.32 µM (inactive)

More entries:
input: Data request, read-out GI50, for NC(=O)c1ccc(Cl)c([N+](=O)[O-])c1
output: > 100 µM (inactive)

input: Data request, read-out GI50, for S=C1SC(=N\c2ccccc2)/C(=N/c2ccccc2)N1c1ccc2ccccc2c1
output: > 100 µM (inactive)

----------
# Test system: SK-MEL-2
# assay-notes: NCI tumour cell line growth inhibition, 48 h
Active and inactive are the calls of the source. Cut-off read from the data, not from the text of the source: active = GI50 up to about 1.1 µM and inactive = higher.
Return exactly one item of TRUE = active, FALSE = inactive

input: Any idea what this test logged for Oc1ccc(Cl)cc1/C=N/c1cnc2ccccc2c1 ?
output: FALSE

input: Any idea what this test logged for COC1(OC)CCCCC2c3cccc(OC(C)=O)c3C21OC(C)=O (configuration not stated) ?
output: FALSE

input: Any idea what this test logged for CCOC(=O)Oc1cc2c(ccn2C)c2c1c1ccccc1n2C(=O)OCC ?
output: FALSE

More entries:
input: Any idea what this test logged for CCOC(=O)Nc1cc2c(c(N)n1)N=C(c1ccc(OC)cc1)CN2 ?
output: TRUE

input: Any idea what this test logged for CC(=O)OC1COC(N2C(=O)C(=O)c3cc(Br)ccc32)C(OC(C)=O)C1OC(C)=O (configuration not stated) ?
output: FALSE

input: Any idea what this test logged for C=C(Cl)c1c(OC)cccc1OCc1ccccc1 ?
output: FALSE

input: Any idea what this test logged for CN1CSC(=S)N(c2cccc(C(F)(F)F)c2)C1 ?
output: FALSE

Entry source: ChEMBL document CHEMBL1201862
